# Test Name: Compound was evaluated for its inhibitory activity against 5-hydroxytryptamine 1D receptor of bovine caudate using [3H]5-HT as the radioligand
pIC50: −log10 of the molar value.
Observable: pIC50

>>> print(df.to_string())
                             sample_smiles  observable  meas_value
0  FC(F)(F)c1ccc2c(c1)nc(N1CCNCC1)c1cccn12       pIC50        6.72
